- Test system: BPH-1;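 further: cell viability assay measuring growth inhibition of human BPH-1 cells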
- measurement-description: cells
- Format: functional, cell-based, Homo sapiens
- assay-setup: bph-1
- Description: SANGER: Inhibition of human BPH-1 cell growth in a cell viability assay.
measurement-kind: pIC50
In simple prose, pIC50 is minus the logarithm base ten of a concentration in moles per litre.

Prompt: Tell me its pIC50 given Cc1cc([C@@H](C)Nc2ccccc2C(=O)O)c2nc(N3CCOCC3)cc(=O)n2c1 [AZD-6482] as the entry.
Completion: 5.37

###

- Test system: NCI-H128
- measurement-description: SANGER: Inhibition of human NCI-H128 cell growth in a cell viability assay.
- Format: functional, cell-based
pIC50: −log10 of the molar value.
measurement-kind: pIC50

[[record]]
compound = "O=C(/C=C/c1ccccc1)NC(NC(=S)Nc1cccc2cccnc12)C(Cl)(Cl)Cl (configuration not stated)"
measurement_kind = "pIC50"
measured_result = "< 4.80"


Prompt: Tell me its pIC50 given "CCC(=O)N1CCN(c2ccc(-n3c(=O)ccc4cnc5ccc(-c6cnc7ccccc7c6)cc5c43)cc2C(F)(F)F)CC1" as the entry.
Completion: < 5.92

###

- Tested on: KALS-1;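 further: growth inhibition of KALS-1 cells, determined with a cell viability assay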
- measurement-description: cells
- Format: functional, cell-based, Homo sapiens
- assay-setup: kals-1
- Description: SANGER: Inhibition of human KALS-1 cell growth in a cell viability assay.
measurement-kind: IC50

Prompt: Tell me its IC50 given Cc1cc([C@@H](C)Nc2ccccc2C(=O)O)c2nc(N3CCOCC3)cc(=O)n2c1 [AZD-6482] as the entry.
Completion: > 5.12 µM

###

- System: COLO-792
- measurement-description: cells
- Type: functional, cell-based, Homo sapiens
- assay-setup: Homo sapiens, COLO-792
- Description: SANGER: Inhibition of human COLO-792 cell growth in a cell viability assay.
measurement-kind: IC50

Previously resolved entries follow.
[[record]]
smiles_structure = "O=c1cc(-c2cccc3c2Sc2ccccc2S3)oc(N2CCOCC2)c1"
measured_result = "> 10000 nM"

[[record]]
smiles_structure = "CN(C)C/C=C/C(=O)Nc1cc2c(Nc3ccc(F)c(Cl)c3)ncnc2cc1O[C@H]1CCOC1"
measured_result = "> 500 nM"

[[record]]
smiles_structure = "Cc1ccc(Nc2nccc(N(C)c3ccc4c(C)n(C)nc4c3)n2)cc1S(N)(=O)=O"
measured_result = "> 8000 nM"


Prompt: Tell me its IC50 given "C=CCNC1=C2C[C@@H](C)C[C@H](OC)[C@H](O)[C@@H](C)/C=C(\C)[C@H](OC(N)=O)[C@@H](OC)/C=C\C=C(/C)C(=O)NC(=CC1=O)C2=O" as the entry.
Completion: 313 nM

###

- System: NCI-H2291
- measurement-description: cells
- Format: functional, cell-based
- assay-setup: Homo sapiens
- Description: SANGER: Inhibition of human NCI-H2291 cell growth in a cell viability assay.
measurement-kind: IC50

Previously resolved entries follow.
[[record]]
compound = "CN(Cc1cnc2nc(N)nc(N)c2n1)c1ccc(C(=O)N[C@@H](CCC(=O)O)C(=O)O)cc1 [METHOTREXATE]"
measurement_kind = "IC50"
measured_result = "> 200 nM"

[[record]]
compound = "O=C1N=C(NCc2cccs2)S/C1=C\\c1ccc2ncccc2c1"
measurement_kind = "IC50"
measured_result = "> 5000 nM"

[[record]]
compound = "CCOc1nc(NC(=O)Cc2cc(OC)ccc2OC)cc(N)c1C#N"
measurement_kind = "IC50"
measured_result = "> 10000 nM"

[[record]]
compound = "COc1cc(F)c(F)c(Nc2ccc(I)cc2F)c1NS(=O)(=O)C1(CC(O)CO)CC1 (stereo not drawn)"
measurement_kind = "IC50"
measured_result = "397 nM"

[[record]]
compound = "COc1ccc(-c2ccc3c(N4CCOC[C@@H]4C)nc(N4CCOC[C@@H]4C)nc3n2)cc1CO"
measurement_kind = "IC50"
measured_result = "> 2000 nM"

[[record]]
compound = "O=C(c1cc(Cc2n[nH]c(=O)c3ccccc23)ccc1F)N1CCN(C(=O)C2CC2)CC1"
measurement_kind = "IC50"
measured_result = "> 5000 nM"

[[record]]
compound = "COc1ccc(C2=N[C@@H](c3ccc(Cl)cc3)[C@@H](c3ccc(Cl)cc3)N2C(=O)N2CCNC(=O)C2)c(OC(C)C)c1"
measurement_kind = "IC50"
measured_result = "> 8000 nM"


Prompt: Tell me its IC50 given "CC(=O)O[C@@]12CO[C@@H]1C[C@H](O)[C@@]1(C)C(=O)[C@H](O)C3=C(C)[C@@H](OC(=O)[C@H](O)[C@@H](NC(=O)OC(C)(C)C)c4ccccc4)C[C@@](O)([C@@H](OC(=O)c4ccccc4)[C@H]21)C3(C)C" as the entry.
Completion: > 10 nM

###

Let's look at some compounds and their measured IC50.
- Tested on: DBTRG-05MG;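 further: cell viability assay measuring growth inhibition of human DBTRG-05MG cells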
- measurement-description: cells
- Type: functional, cell-based, Homo sapiens
- assay-setup: Homo sapiens, DBTRG-05MG
- Description: SANGER: Inhibition of human DBTRG-05MG cell growth in a cell viability assay.
The figure you give is taken to be in µM; do not add the unit.

Previously resolved entries follow.
[[record]]
compound = "O=C(NOCC1CC1)c1ccc(F)c(F)c1Nc1ccc(I)cc1Cl [CI-1040]"
subject_of_test = "DBTRG-05MG"
measured_result = 8.75

[[record]]
compound = "CCC1=C[C@@H]2CN(C1)Cc1c([nH]c3ccccc13)[C@@](C(=O)OC)(c1cc3c(cc1OC)N(C)[C@H]1[C@@](O)(C(=O)OC)[C@H](OC(C)=O)[C@]4(CC)C=CCN5CC[C@]31[C@@H]54)C2 [VINORELBINE]"
subject_of_test = "DBTRG-05MG"
measured_result = 0.00388


# context switch: different compound, same IC50
Prompt: Enter measured IC50, system DBTRG-05MG, for the compound shown: "COC(=O)CNC(=O)C(=O)OC"
Completion: 311

###

- System: NCCIT
- measurement-description: SANGER: Inhibition of human NCCIT cell growth in a cell viability assay.
- Type: functional, cell-based
measurement-kind: pIC50
In simple prose, pIC50 is minus the logarithm base ten of a concentration in moles per litre.

Previously resolved entries follow.
[[record]]
compound = "Cn1cncc1[C@@](N)(c1ccc(Cl)cc1)c1ccc2c(c1)c(-c1cccc(Cl)c1)cc(=O)n2C [TIPIFARNIB]"
measured_result = 5.89

[[record]]
compound = "COC(=O)CNC(=O)C(=O)OC"
measured_result = 4.00


# context switch: different compound, same pIC50
Prompt: Tell me its pIC50 given CCC(=O)N1CCN(c2ccc(-n3c(=O)ccc4cnc5ccc(-c6cnc7ccccc7c6)cc5c43)cc2C(F)(F)F)CC1 [TORIN1] as the entry.
Completion: 6.27

###

Let's look at some compounds and their measured IC50.
- Tested on: AN3-CA;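 further: growth inhibition of human AN3-CA cells measured by a cell viability assay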
- measurement-description: cells
- Format: functional, cell-based
- assay-setup: Homo sapiens
- Description: SANGER: Inhibition of human AN3-CA cell growth in a cell viability assay.
The figure you give is taken to be in µM; do not add the unit.

[[record]]
smiles_structure = "C=CCNC1=C2C[C@@H](C)C[C@H](OC)[C@H](O)[C@@H](C)/C=C(\\C)[C@H](OC(N)=O)[C@@H](OC)/C=C\\C=C(/C)C(=O)NC(=CC1=O)C2=O"
subject_of_test = "AN3-CA"
unit_of_measurement = "µM"
measured_result = 0.05


# context switch: different compound, same IC50
Prompt: Tell me its IC50 given "Nc1ccn([C@@H]2O[C@H](CO)[C@@H](O)[C@@H]2O)c(=O)n1" as the entry.
Completion: 1.84

###

- Tested on: EW-11
- measurement-description: cells
- Assay type: functional, cell-based, Homo sapiens
- assay-setup: ew-11
- Description: SANGER: Inhibition of human EW-11 cell growth in a cell viability assay.
pIC50: −log10 of the molar value.
measurement-kind: pIC50

Prompt: Tell me its pIC50 given Cc1cc([C@@H](C)Nc2ccccc2C(=O)O)c2nc(N3CCOCC3)cc(=O)n2c1 [AZD-6482] as the entry.
Completion: < 5.29

###

- Tested on: PANC-08-13
- measurement-description: cells
- Format: functional, cell-based, Homo sapiens
- assay-setup: panc-08-13
- Description: SANGER: Inhibition of human PANC-08-13 cell growth in a cell viability assay.
measurement-kind: IC50

Prompt: Tell me its IC50 given Cc1cc([C@@H](C)Nc2ccccc2C(=O)O)c2nc(N3CCOCC3)cc(=O)n2c1 [AZD-6482] as the entry.
Completion: > 5.12 µM

###

- Tested on: MDA-MB-453
- measurement-description: cells
- Assay type: functional, cell-based, Homo sapiens
- assay-setup: Homo sapiens, MDA-MB-453
- Description: SANGER: Inhibition of human MDA-MB-453 cell growth in a cell viability assay.
pIC50: −log10 of the molar value.
Let's look at some compounds and their measured pIC50.

Previously resolved entries follow.
[[record]]
smiles_structure = "CN(c1ncccc1CNc1nc(Nc2ccc3c(c2)CC(=O)N3)ncc1C(F)(F)F)S(C)(=O)=O"
measured_result = "< 5.59"

[[record]]
smiles_structure = "Cn1cncc1[C@@](N)(c1ccc(Cl)cc1)c1ccc2c(c1)c(-c1cccc(Cl)c1)cc(=O)n2C"
measured_result = "< 4.80"

[[record]]
smiles_structure = "Cc1ccc(Nc2nccc(N(C)c3ccc4c(C)n(C)nc4c3)n2)cc1S(N)(=O)=O"
measured_result = "< 5.10"

[[record]]
smiles_structure = "CCC1=C[C@@H]2CN(C1)Cc1c([nH]c3ccccc13)[C@@](C(=O)OC)(c1cc3c(cc1OC)N(C)[C@H]1[C@@](O)(C(=O)OC)[C@H](OC(C)=O)[C@]4(CC)C=CCN5CC[C@]31[C@@H]54)C2"
measured_result = "< 7.19"

[[record]]
smiles_structure = "COc1ccc(C2=N[C@@H](c3ccc(Cl)cc3)[C@@H](c3ccc(Cl)cc3)N2C(=O)N2CCNC(=O)C2)c(OC(C)C)c1"
measured_result = "< 5.10"


# context switch: different compound, same pIC50
Prompt: Tell me its pIC50 given "C=CCNC1=C2C[C@@H](C)C[C@H](OC)[C@H](O)[C@@H](C)/C=C(\C)[C@H](OC(N)=O)[C@@H](OC)/C=C\C=C(/C)C(=O)NC(=CC1=O)C2=O" as the entry.
Completion: 6.17
